# key: entry, value: IC50
# Tested on: NF-kB reporter in Jurkat cells
# ASSAY_EXPLANATION: NF-kB reporter assay in Jurkat cells stimulated with aCD3/aCD28/PMA
# Format: cell-based
# CONDITION_PARAMETERS: Homo sapiens; Jurkat cells, 1 hr compound pre-incubation, aCD3/aCD28/PMA stimulation 4 hr, One-Glo readout; read-out: NF-kB Reporter Assay IC50

// known answers, use as guide
CN1CC(C)(C)N(c2ccnc(-n3cc(S(=O)(=O)Nc4cccc5cnn(C)c45)cn3)c2)C1=O :: < 400 nM
Cn1ncc2cccc(NS(=O)(=O)c3cnn(-c4cc(C(F)(F)F)c(Cl)cn4)c3)c21 :: < 400 nM
COc1ccc2cnn(C)c2c1NS(=O)(=O)c1cnn(-c2cc(N3CC(C)(C#N)C3)ccn2)c1 :: 400 to 1000 nM
COC[C@@](C)(F)c1ccnc(-n2cc(S(=O)(=O)Nc3cccc4cnn(C)c34)cn2)c1 :: < 400 nM

[in] For COC1(c2ccnc(-n3cc(S(=O)(=O)Nc4cccc5[nH]nc(C)c45)cn3)c2)COC1 , what is its reported IC50?
[out] < 400 nM

[in] Please look up its IC50: COc1ccc2cnn(C)c2c1NS(=O)(=O)c1cnn(-c2cc(CO)ccn2)c1
[out] < 400 nM

[in] Fill blank: measured IC50 of the compound Cn1ncc2cccc(NS(=O)(=O)c3cnn(-c4cc(C(C)(C)CO)ccn4)c3)c21 is ____.
[out] < 400 nM

[in] Form field: reported IC50 of COc1ccc2cnn(C)c2c1NS(=O)(=O)c1cnn(-c2cnn3c2OCCC3)c1
[out] > 2500 nM

---

# Test system: NF-kB reporter in Jurkat cells
# ASSAY_EXPLANATION: NF-kB reporter assay in Jurkat cells stimulated with aCD3/aCD28/PMA
# Format: cell-based
# CONDITION_PARAMETERS: Homo sapiens; Jurkat cells, 1 hr compound pre-incubation, aCD3/aCD28/PMA stimulation 4 hr, One-Glo readout; read-out: NF-kB Reporter Assay IC50
pIC50: −log10 of the molar value.
pIC50 by entry:

Before answering, review these 5 worked examples.
COc1ccc2cnn(C)c2c1NS(=O)(=O)c1cnn(-c2cc(N3CC[C@H](F)C3)ccn2)c1 [Compound I-422] :: > 6.40
CCC(CC)(OC)c1ccnc(-n2cc(S(=O)(=O)Nc3cccc4cnn(C)c34)cn2)c1 [Compound I-296] :: > 6.40
Cn1ncc2cccc(NS(=O)(=O)c3cnn(-c4cc(N5CC6CC6C5)ccn4)c3)c21 (centres unmarked) [Compound I-375] :: > 6.40
Cn1ncc2cccc(NS(=O)(=O)c3cnn(-c4ccnc(C(F)(F)F)c4)c3)c21 [Compound I-16] :: < 5.60
Cn1cc2ccc(F)c(NS(=O)(=O)c3cnn(-c4cc(C(F)(F)F)ccn4)c3)c2n1 [Compound I-104] :: < 5.60

[in] Dear colleague, I am looking for the recorded pIC50 of the following molecule: COC1(c2ccnc(-n3cc(S(=O)(=O)Nc4cccc5cnn(C)c45)cn3)c2)CN(C)C1 [Compound I-252]
[out] > 6.40

[in] Value lookup for pIC50; key = Cn1ncc2cccc(NS(=O)(=O)c3cnn(-c4cc(C5=CCOCC5)ccn4)c3)c21 [Compound I-119]
[out] > 6.40

[in] Sample CC[C@@H](OC)c1ccnc(-n2cc(S(=O)(=O)Nc3c(OC)ccc4cnn(C)c34)cn2)c1 [Compound I-318] — what was its pIC50?
[out] > 6.40
